# credit: patent US5130307A

Listed below: Skin Graft (days + SD), mean graft survival time values for each entry.
tested on: pinch skin graft from male DBA/2 donors transplanted to male BALB/c recipients; assay: survival time of pinch skin graft; type: in vivo; conditions: intraperitoneally; mean ± SD
recorded metric: Skin Graft (days + SD), mean graft survival time (days)

compound	numeric result
CO[C@H]1C[C@@H]2CC[C@@H](C)[C@@](O)(O2)C(=O)C(=O)N2CCCC[C@H]2C(=O)O[C@H]([C@H](C)C[C@@H]2CC[C@@H](OC(=O)CN(C)C(=O)OC(C)(C)C)[C@H](OC)C2)CC(=O)[C@H](C)/C=C(\C)[C@@H](O)[C@@H](OC)C(=O)[C@H](C)C[C@H](C)/C=C/C=C/C=C/1C [Example 4]	12.3
CO[C@H]1C[C@@H]2CC[C@@H](C)[C@@](O)(O2)C(=O)C(=O)N2CCCC[C@H]2C(=O)O[C@H]([C@H](C)C[C@@H]2CC[C@@H](OC(=O)CC[C@H](NC(=O)OC(C)(C)C)C(=O)OC(C)(C)C)[C@H](OC)C2)CC(=O)[C@H](C)/C=C(\C)[C@@H](OC(=O)CC[C@H](NC(=O)OC(C)(C)C)C(=O)OC(C)(C)C)[C@@H](OC)C(=O)[C@H](C)C[C@H](C)/C=C/C=C/C=C/1C [Example 11]	10.5
CO[C@H]1C[C@@H]2CC[C@@H](C)[C@@](O)(O2)C(=O)C(=O)N2CCCC[C@H]2C(=O)O[C@H]([C@H](C)C[C@@H]2CC[C@@H](OC(=O)C[C@H](NC(=O)OC(C)(C)C)C(=O)OCc3ccccc3)[C@H](OC)C2)CC(=O)[C@H](C)/C=C(\C)[C@@H](O)[C@@H](OC)C(=O)[C@H](C)C[C@H](C)/C=C/C=C/C=C/1C [Example 9]	10.3
CO[C@H]1C[C@@H]2CC[C@@H](C)[C@@](O)(O2)C(=O)C(=O)N2CCCC[C@H]2C(=O)O[C@H]([C@H](C)C[C@@H]2CC[C@@H](OC(=O)CN(C)C(=O)OC(C)(C)C)[C@H](OC)C2)CC(=O)[C@H](C)/C=C(\C)[C@@H](OC(=O)CN(C)C(=O)OC(C)(C)C)[C@@H](OC)C(=O)[C@H](C)C[C@H](C)/C=C/C=C/C=C/1C [Example 3]	9.0
CO[C@H]1C[C@@H]2CC[C@@H](C)[C@@](O)(O2)C(=O)C(=O)N2CCCC[C@H]2C(=O)O[C@H]([C@H](C)C[C@@H]2CC[C@@H](OC(=O)[C@H](CC(=O)OCc3ccccc3)NC(=O)OC(C)(C)C)[C@H](OC)C2)CC(=O)[C@H](C)/C=C(\C)[C@@H](OC(=O)[C@H](CC(=O)OCc2ccccc2)NC(=O)OC(C)(C)C)[C@@H](OC)C(=O)[C@H](C)C[C@H](C)/C=C/C=C/C=C/1C [Example 7]	7.7
CO[C@H]1C[C@@H]2CC[C@@H](C)[C@@](O)(O2)C(=O)C(=O)N2CCCC[C@H]2C(=O)O[C@H]([C@H](C)C[C@@H]2CC[C@@H](OC(=O)CC[C@H](NC(=O)OC(C)(C)C)C(=O)OC(C)(C)C)[C@H](OC)C2)CC(=O)[C@H](C)/C=C(\C)[C@@H](O)[C@@H](OC)C(=O)[C@H](C)C[C@H](C)/C=C/C=C/C=C/1C [Example 10]	12.7
CO[C@H]1C[C@@H]2CC[C@@H](C)[C@@](O)(O2)C(=O)C(=O)N2CCCC[C@H]2C(=O)O[C@H]([C@H](C)C[C@@H]2CC[C@@H](OC(=O)CNC(=O)CNC(=O)OC(C)(C)C)[C@H](OC)C2)CC(=O)[C@H](C)/C=C(\C)[C@@H](OC(=O)CNC(=O)CNC(=O)OC(C)(C)C)[C@@H](OC)C(=O)[C@H](C)C[C@H](C)/C=C/C=C/C=C/1C [Example 2]	11.5
